- Measured On: C-X-C chemokine receptor type 3 (Homo sapiens) (UniProt P49682)
- Sequence (P49682 whole entry): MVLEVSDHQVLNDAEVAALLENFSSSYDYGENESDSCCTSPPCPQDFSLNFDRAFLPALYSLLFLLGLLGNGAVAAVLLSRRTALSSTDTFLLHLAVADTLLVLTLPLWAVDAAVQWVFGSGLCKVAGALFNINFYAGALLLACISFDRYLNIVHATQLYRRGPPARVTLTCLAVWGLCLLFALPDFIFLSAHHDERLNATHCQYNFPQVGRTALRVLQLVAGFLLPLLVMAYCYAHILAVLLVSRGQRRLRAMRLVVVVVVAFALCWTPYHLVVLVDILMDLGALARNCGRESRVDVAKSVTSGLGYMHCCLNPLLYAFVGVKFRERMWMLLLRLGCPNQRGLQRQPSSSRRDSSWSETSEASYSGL
- Protocol Details: Negative allosteric modulation of CXCR3 in human PBMC assessed as inhibition of CXCL11-induced migration at 30 uM preincubated for 1 hr followed by CXCL11 addition measured after 3 hrs by flow cytometry based transwell assay relative to control
- Format: functional, cell-based
Value Type: inhibition

Consider the reported inhibition for these compounds:
| Compound Smiles | Value Type | Measured |
| --- | --- | --- |
| O=C(c1ccc(-n2cccn2)nc1)N1CCN(Cc2ccc(Cl)cc2)CC1 | inhibition | > 10% |
| COc1ccc(CN2CCN(C(=O)c3ccc(-n4cccn4)nc3)CC2)cc1 | inhibition | > 10% |
| O=C(c1ccc(-n2cccn2)nc1)N1CCC(N(Cc2ccccc2)Cc2ccc(Cl)c(Cl)c2)CC1 | inhibition | > 10% |
| O=C(NC1CCN(Cc2ccc(F)c(F)c2)CC1)c1ccc(-n2cccn2)nc1 | inhibition | > 10% |

Now for a further compound.
Given the entry `O=C(NC1CCN(Cc2ccc(Cl)cc2)CC1)c1ccc(-n2cccn2)nc1` , what inhibition was observed with C-X-C chemokine receptor type 3 (Homo sapiens) (UniProt P49682)? 80%

###

- Measured On: UniProt P61073
- Protocol Details: Negative allosteric modulation of CXCR4 (unknown origin) expressed in HEK293T cells assessed as inhibition of CXCL12-induced reduction in forskolin-mediated cAMP accumulation after 20 mins by BRET assay
- Type: functional, cell-based
Hi, to clarify the labels: yes covers pKb from 6 upward, no covers anything below 6.

| Compound Smiles | Qualitative Label |
| --- | --- |
| O=C(NCCCNc1ccc(Cl)cc1)c1ccc(-n2cccn2)nc1 | no |

Now turn to the next compound.
Can `O=C(c1ccc(-n2cccn2)nc1)N1CCN(Cc2ccc(Cl)c(Cl)c2)CC1` be said to have pKb at or above 6? yes

###

- Measured On: C-X-C chemokine receptor type 3 (Homo sapiens)
- Protocol Details: Negative allosteric modulation of CXCR3 (unknown origin) expressed in HEK293T cells assessed as inhibition of CXCL11-induced reduction in forskolin-mediated cAMP accumulation at 10 uM after 20 mins by BRET assay relative to control
- Type: functional, cell-based
Value Type: inhibition

| Compound | inhibition |
| --- | --- |
| COc1ccc(CN2CCN(C(=O)c3ccc(-n4cccn4)nc3)CC2)cc1 | > 60% |
| O=C(c1ccc(-n2cccn2)nc1)N1CCC(N(Cc2ccccc2)Cc2ccc(Cl)c(Cl)c2)CC1 | > 50% |
| O=C(c1ccc(-n2cccn2)nc1)N1CCN(Cc2ccc(Cl)cc2)CC1 | > 60% |
| O=C(NC1CCN(Cc2ccc(Cl)cc2)CC1)c1ccc(-n2cccn2)nc1 | > 50% |
| O=C(NC1CCN(Cc2ccc(F)c(F)c2)CC1)c1ccc(-n2cccn2)nc1 | > 50% |

Endpoint output: inhibition of CCOc1ccc(-n2c(C(C)N(CC3CCN(C)CC3)C(=O)Cc3ccc(F)c(C(F)(F)F)c3)nc3ncccc3c2=O)cc1 (configuration not stated) . Value? 100%

###

- Measured On: C-X-C chemokine receptor type 3 (Homo sapiens)
- Protocol Details: Agonist activity at CXCR3 (unknown origin) expressed in HEK293T cells assessed as inhibition of forskolin-mediated cAMP accumulation at 10 uM after 20 mins by BRET assay
- Type: functional, cell-based
Active and inactive are the calls of the source. No cut-off for these calls is given here.
Value Type: inhibition

Consider the reported inhibition for these compounds:
| Compound Smiles | inhibition |
| --- | --- |
| O=C(NC1CCN(Cc2ccc(Cl)cc2)CC1)c1ccc(-n2cccn2)nc1 | inactive |
| COc1ccc(CN(Cc2ccccc2)C2CCN(C(=O)c3ccc(-n4cccn4)nc3)CC2)cc1 | inactive |
| O=C(c1ccc(-n2cccn2)nc1)N1CCC(N(Cc2ccccc2)Cc2ccc(Cl)cc2)CC1 | inactive |
| O=C(c1ccc(-n2cccn2)nc1)N1CCC(N(Cc2ccccc2)Cc2ccc(F)c(F)c2)CC1 | inactive |
| O=C(c1ccc(-n2cccn2)nc1)N1CCC(N(Cc2ccccc2)Cc2ccc(Cl)c(Cl)c2)CC1 | inactive |

Endpoint output: inhibition of `O=C(c1ccc(-n2cccn2)nc1)N1CCC(N(Cc2ccccc2)Cc2ccccc2)CC1` . Value? inactive

What about `O=C(c1ccc(-n2cccn2)nc1)N1CCC(NCc2ccccc2)CC1` ? inactive

What about `O=C(NC1CCN(Cc2ccc(F)c(F)c2)CC1)c1ccc(-n2cccn2)nc1` ? inactive

###

- Measured On: C-X-C chemokine receptor type 4 (Homo sapiens, UniProt P61073)
- Sequence (P61073 whole entry): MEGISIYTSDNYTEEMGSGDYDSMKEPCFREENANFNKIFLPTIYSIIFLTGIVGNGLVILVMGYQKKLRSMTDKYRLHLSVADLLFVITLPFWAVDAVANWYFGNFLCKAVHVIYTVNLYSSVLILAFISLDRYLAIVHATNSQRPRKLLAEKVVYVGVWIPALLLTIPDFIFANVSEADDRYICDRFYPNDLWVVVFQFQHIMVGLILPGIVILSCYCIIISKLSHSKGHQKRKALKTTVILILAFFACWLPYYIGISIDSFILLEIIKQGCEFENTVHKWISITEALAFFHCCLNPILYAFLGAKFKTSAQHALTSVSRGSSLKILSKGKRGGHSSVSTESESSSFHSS
- Protocol Details: Negative allosteric modulation of CXCR4 (unknown origin) expressed in HEK293T cells assessed as inhibition of CXCL12-induced reduction in forskolin-mediated cAMP accumulation after 20 mins by BRET assay
- Assay type: functional, cell-based
Value Type: pKb
Respond with the number and no other words.

| Compound Smiles | pKb |
| --- | --- |
| CC1(C)CN2C(CS/C(=N\C3CCCCC3)NC3CCCCC3)=CSC2=N1 | 8.54 |
| COc1ccc(CN(Cc2ccccc2)C2CCN(C(=O)c3ccc(-n4cccn4)nc3)CC2)cc1 | 5.83 |

Now for a further molecule.
Endpoint output: pKb of `O=C(NC1CCN(Cc2ccc(Cl)cc2)CC1)c1ccc(-n2cccn2)nc1` . Value? 5.6

###

Reported inhibition is given for each of the following compounds.
- Measured On: C-X-C chemokine receptor type 3 (Homo sapiens)
- Protocol Details: Negative allosteric modulation of PK1-tagged CXCR3 (unknown origin) expressed in HEK293T cells co-expressing beta-arrestin/beta-Gal enzyme chimera assessed as inhibition of CXCL11-induced beta-arrestin recruitment at 10 uM after 4 hrs by chemiluminescence based beta-galactosidase reporter gene assay relative to control
- Assay type: functional, cell-based

Consider the reported inhibition for these compounds:
| Compound | inhibition |
| --- | --- |
| CCOc1ccc(-n2c(C(C)N(Cc3cccnc3)C(=O)Cc3ccc(F)c(C(F)(F)F)c3)nc3ncccc3c2=O)cc1 (racemic) | 100% |
| O=C(c1ccc(-n2cccn2)nc1)N1CCC(N(Cc2ccccc2)Cc2ccc(F)c(F)c2)CC1 | ≥ 20% |
| COc1ccc(CN(Cc2ccccc2)C2CCN(C(=O)c3ccc(-n4cccn4)nc3)CC2)cc1 | ≥ 20% |
| O=C(c1ccc(-n2cccn2)nc1)N1CCC(N(Cc2ccccc2)Cc2ccccc2)CC1 | ≥ 20% |

Now for a further compound.
Endpoint output: inhibition of `O=C(c1ccc(-n2cccn2)nc1)N1CCC(N(Cc2ccccc2)Cc2ccc(Cl)cc2)CC1` . Value? ≥ 20%

###

Reported inhibition is given for each of the following compounds.
- Measured On: C-X-C chemokine receptor type 4 (Homo sapiens, UniProt P61073)
- Protocol Details: Negative allosteric modulation of CXCR4 in human CD4+ T cells assessed as inhibition of CXCL12-induced migration at 150 uM preincubated for 1 hr followed by CXCL12 addition measured after 3 hrs by flow cytometry based transwell assay relative to control
- Type: functional, cell-based

| Compound Smiles | inhibition |
| --- | --- |
| O=C(c1ccc(-n2cccn2)nc1)N1CCN(Cc2ccc(Cl)c(Cl)c2)CC1 | > 80% |
| COc1ccc(CN2CCN(C(=O)c3ccc(-n4cccn4)nc3)CC2)cc1 | > 80% |
| O=C(NCCCN(CCc1ccccc1)c1ccccc1)c1ccc(-n2cccn2)nc1 | > 80% |
| COc1ccc(CN(Cc2ccccc2)C2CCN(C(=O)c3ccc(-n4cccn4)nc3)CC2)cc1 | 100% |

Now for a further compound.
Endpoint output: inhibition of `O=C(NCCCN(Cc1ccccc1)c1ccccc1)c1ccc(-n2cccn2)nc1` . Value? > 80%

###

Reported pKb is given for each of the following compounds.
- Measured On: C-X-C chemokine receptor type 4 (Homo sapiens)
- Protocol Details: Negative allosteric modulation of CXCR4 (unknown origin) expressed in HEK293T cells assessed as inhibition of CXCL12-induced reduction in forskolin-mediated cAMP accumulation after 20 mins by BRET assay
- Assay type: functional, cell-based
Respond with the number and no other words.

Consider the reported pKb for these compounds:
| Compound Smiles | Measured On | pKb |
| --- | --- | --- |
| O=C(NCCCN(Cc1ccccc1)c1ccccc1)c1ccc(-n2cccn2)nc1 | C-X-C chemokine receptor type 4 (Homo sapiens) | 6.04 |
| COc1ccc(CN2CCN(C(=O)c3ccc(-n4cccn4)nc3)CC2)cc1 | C-X-C chemokine receptor type 4 (Homo sapiens) | 6.09 |

Endpoint output: pKb of `O=C(NCCCN(CCc1ccccc1)c1ccccc1)c1ccc(-n2cccn2)nc1` . Value? 6.13
